System: Candida albicans
conditions_used: 32 ug/mL
Description: Antifungal activity against Candida albicans ATCC 90028 (CO-ADD:FG_001); MIC in YNB media using NBS plates, by OD630
Results with a measured potency or affinity are listed apart.
measure_name: Inhibition (%)
Please state the figure in %; there is no need to write the unit.

Query: What value of Inhibition has been reported for the following molecule? CS(=O)(=O)O[C@H]1CC[C@H](OS(C)(=O)=O)CC1
Reply: 3.52

Query: Try the molecule C#CCN(C)Cc1cc2cc(OCCCCC3CCN(Cc4ccccc4)CC3)ccc2n1C
Reply: 2.73

Query: Item: COc1ccc(C2c3c(nc4c(c3N)CCCC4)Oc3ccc4ccccc4c32)cc1 (configuration not stated)
Reply: 0.67

###

Tested on: Cryptococcus neoformans
conditions_used: Concentration 32 ug.mL-1; ASSAY_TEST Inhibition of Fungal Growth; detection method Resazurin; Absorption (OD600-OD570); plate type 384well; NBS; CORNING #3640
Description: Antifungal activity against Cryptococcus neoformans H99 ATCC 208821 (CO-ADD:FG_002); MIC in YNB media using NBS plates, by Resazurin OD(600-570)
Entries with a potency or affinity are not part of this list.
Quick reference for Inhibition among some compounds
Provide only the numeric value, understood in %.

Here is how some compounds turned out for Inhibition.
C#CCN(C)Cc1cc2cc(OCc3ccccc3)ccc2n1C.O=C(O)C(=O)O | -91.88
Cl.ClCCCCCN1CCCCC1 | -4.11
N#C/C(=C\c1ccccc1Cl)C(=O)c1ccccc1 | -6.26
COc1nc2ccccc2cc1C=O | -2.5
CN(C)c1nc(Cl)c(C#N)c(-c2ccccc2)c1C#N | -9.38
COc1ccc(C2c3c(nc4c(c3N)CCCC4)Oc3ccc4ccccc4c32)c(OC)c1 (centres undefined) | 16.32

Lab note: next compound to report on.
Query: Request the reported Inhibition associated with O=C1NC(=S)N/C1=C\c1ccccc1
Reply: -1.21

###

Items are presented alongside their recorded Inhibition.
Tested on: Candida albicans
conditions_used: 32 ug/mL
Results with a measured potency or affinity are listed apart.
State just the number; it will be interpreted in %.

# annotated cases, reported Inhibition shown
COC(=O)C(NC(=O)c1ccccc1)=C(C)c1ccccc1 | -0.01
COc1cccc(C2c3c(nc4c(c3N)CCCC4)Oc3ccc4ccccc4c32)c1 (configuration not stated) | -0.15
N#CC1=C(N)Oc2ccc3ccccc3c2C1c1ccc(O)cc1 (configuration not stated) | 2.93
C#CCNc1nc(N)c(C#N)c(-c2ccccc2)c1C#N | 2.85
C#CCN(C)Cc1cc2cc(OCCCCC3CCN(Cc4ccccc4)CC3)ccc2n1C.Cl | 2.11
NNC(=O)C1(NC(=O)c2ccccc2)CC1c1cccc(O)c1 (configuration not stated) | 0.45
C#CCn1c(N)c(C#N)c2cc(O)ccc21 | 1.41
CN(C)c1nc(N)c(C#N)cc1C#N | 0.31
CC1(C)OS(=O)(=O)C2=C1NC(N)=C(C#N)C2c1ccccc1 (configuration not stated) | 0.27
C#CCN(C)Cc1cc2cc(OCc3ccc(OC)c4ncccc34)ccc2n1C | 6.72

Query: Data request, read-out Inhibition, for Cn1cc(C(=O)NN)c2ccccc21
Reply: 4.47

Query: Repeat for the following compound: N#Cc1cc2c(N)c3c(nc2nc1Cl)CCN(Cc1ccccc1)C3
Reply: 2.4

###

Listing of entries alongside the reported Inhibition.
Test system: Candida albicans
conditions_used: 32 ug/mL
Results with a measured potency or affinity are listed apart.
Use % as the unit, but write only the number.

Would you please look over these solved cases?
N#CC1=C(N)Oc2c(ccc3ccccc23)C1c1c(Cl)cccc1Cl (configuration not stated) | -0.77
C#CCN(C)Cc1cc2cc(OCCCC3CCN(C(=O)OC(C)(C)C)CC3)ccc2n1C | 1.82
CC(C)CC(C)NNC(=O)c1cc2ccccc2[nH]1 (configuration not stated) | -0.37
N#CCC(=C(C#N)C#N)c1ccccc1 | 5.35
N#CC1(Br)C(=N)Oc2ccc3ccccc3c2C1c1cccc([N+](=O)[O-])c1 (configuration not stated) | 11.2
CCOC(=O)C1=C(C)Oc2nc3c(c(N)c2C1c1nccn1C)CCC3 (configuration not stated) | -1.64

Query: Form field: reported Inhibition of CC1Cc2ccccc2N1/N=C/c1ccccc1 (configuration not stated)
Reply: -2.78

Query: Same thing, different molecule: CC(C)(C)OC(=O)Nc1ccccn1
Reply: 0.46

###

System: Cryptococcus neoformans
conditions_used: Concentration 32 ug.mL-1; ASSAY_TEST Inhibition of Fungal Growth; detection method Resazurin; Absorption (OD600-OD570); plate type 384well; NBS; CORNING #3640
Measured potencies and affinities stand elsewhere.
measure_name: Inhibition (%)
Provide only the numeric value, understood in %.

Illustrative cases are given below, each with its answer.
Cl.OCC1CCN(Cc2ccccc2)CC1 | -2.26
CN(C)c1nc(N)c(C#N)cc1C#N | -5.23
N#CC1(Br)C(=NBr)Oc2c(ccc3ccccc23)C1c1ccccc1[N+](=O)[O-] (configuration not stated) | -80.63
Cc1nn(-c2ccccc2)c2ncnc(Nc3ccccc3)c12 | -2.23
O=C(Cc1c[nH]c2ccccc12)NNCc1ccccc1 | -1.3
CCOC(=O)c1cc(C#N)c(N)nc1C | -17.38

Then there is this compound:
Query: May I ask what Inhibition has been recorded for CN(C)c1ccc(C(=NNC(=O)c2cc3ccccc3[nH]2)c2ccc(N(C)C)cc2)cc1 ?
Reply: -8.51

###

Tested on: Klebsiella pneumoniae
conditions_used: Concentration 32 ug.mL-1; ASSAY_TEST Inhibition of Bacterial Growth; detection method Absorption (OD600); MEDIA CAMHB; plate type 384well; NBS; CORNING #3640; time 18 hr
Description: Antibacterial activity against Klebsiella pneumoniae MDR ATCC 70063 (CO-ADD:GN_003); MIC in CAMBH media using NBS plates, by OD(600)
Measured potencies and affinities stand elsewhere.
measure_name: Inhibition (%)
Express your answer in %, writing the number without its unit.

N#Cc1c(N)nc2c(c1-c1ccccc1)CN(Cc1ccccc1)CC2 | 16.71
COc1ccc(C=C2N=C(SC)N(C)C2=O)cc1 | -13.67
COc1ccccc1[C@H]1c2c(ccc3ccccc23)O/C(=N\Br)[C@@]1(Br)C#N | 5.34

With those in mind, consider the next compound.
Query: What does the data say about its Inhibition? Entry: C#CCNC.O=C(O)C(=O)O
Reply: 9.05

###

Tested on: Candida albicans
conditions_used: 32 ug/mL
Potency and affinity values are given separately.
Inhibition for assorted compounds
Give just the number in %; leave the unit off.

Previously resolved entries follow.
CC(=O)Nc1n[nH]c2nc(N)c(C#N)c(-c3ccccc3)c12 | 3.09
COc1cccc(C2c3ccc4ccccc4c3OC(=NBr)C2(Br)C#N)c1 (stereo not drawn) | -0.64
C#CCN(C)c1nc(OC)c(C#N)cc1C#N | 2.65
N#Cc1c(N)nc(NC2CCN(Cc3ccccc3)CC2)c(C#N)c1-c1ccccc1 | 2.69
C/C(Cc1ccccc1)=N/NC(=O)c1c[nH]c2ccc(O)cc12 | 0.37
C#CCNc1ccc(Cl)nn1 | 3.36

Query: # query: Inhibition of entry CN(C)c1cccc(C(=O)c2cccc(N(C)C)c2)c1
Reply: -0.28

Query: Another: CCOC(=O)C1=C(C)Oc2nc3c(c(N)c2C1c1ccc(O)c(OC)c1)CCC3 (stereo not drawn)
Reply: 0.9

###

Reported Inhibition by item:
Tested on: Candida albicans
conditions_used: 32 ug/mL
Potency and affinity values are given separately.
Provide the reading as a plain figure in %.

COc1ccc2c(c1)cc(CN(C)C)n2C | -0.31

Here is another compound to look at.
Query: I am curious: what Inhibition value has been reported for CCOC(=O)c1c(C)nc2nc3c(c(N)c2c1-c1ccc(OC)cc1)CCCCCC3 ?
Reply: -1.03

###

Reported Inhibition values are given for each entry in this list.
Tested on: Candida albicans
conditions_used: 32 ug/mL
Measured potencies and affinities stand elsewhere.
Supply the numeric figure in %, leaving out any unit text.

Use these answered entries as a reference point.
CC(=O)O[C@H]1CC[C@H](NC(=O)c2ccccc2)CC1 | 3.3
Cl.N#Cc1c(Cl)nc(N)nc1NCCO | 1.9
C#CCNC.O=C(O)C(=O)O | 4.18
C#CCNc1nc(NCCCCC2CCN(Cc3ccccc3)CC2)c(C#N)cc1C#N | 4.43
N#Cc1cccnc1N | 1.57

Next:
Query: May I ask what Inhibition has been recorded for CNC(=O)c1c(Cl)c2cc(OCc3ccccc3)ccc2n1C ?
Reply: 4.9

###

Test system: Candida albicans
conditions_used: 32 ug/mL
Entries with a potency or affinity are not part of this list.
Overview of reported Inhibition across a group of compounds:
Unit % implied. Number only.

Cc1nc2c3c(C)nn(-c4ccccc4)c3ncn2n1 | -0.04
Cc1[nH]c2ccc(OCc3ccccc3)cc2c1C(=O)NN | 1.23
Cl.NC1(C(=O)O)CC1c1cccc(Cl)c1 (centres undefined) | 2.81

Query: Request body: readout Inhibition, system Candida albicans, query O=C(O)c1c[nH]c2ccccc12 . Return the value.
Reply: 6.48

Query: Another compound to check: Cc1ccc2nc(Cl)c(/C=N/OCc3ccccc3)cc2c1
Reply: 2.45

Query: // repeat for CCOc1nc2nc(C)c(C=C3CCN(Cc4ccccc4)CC3)cc2c(-c2ccccc2)c1C#N and report
Reply: 2.44

Query: # iterate: CCOC(=O)C1=C(C)OC(N)=C(C#N)C1c1ccccc1OC (centres undefined)
Reply: 23.3

Query: For C#CCNc1[nH]c2ccc(O)cc2c1C#N then?
Reply: 1.86

Query: And then O=C(N[C@H]1CC[C@@H](Br)[C@@H](Br)C1)C(F)(F)F , what is it?
Reply: 9.4

Query: Consider next the compound N#Cc1cc(C#N)c(Cl)nc1N in the same way.
Reply: 2.15

Data origin, for the record: ChEMBL document CHEMBL4513135
